# Target of assay: LsrK (Salmonella typhimurium)
# Sequence (Q8ZKQ6 whole entry): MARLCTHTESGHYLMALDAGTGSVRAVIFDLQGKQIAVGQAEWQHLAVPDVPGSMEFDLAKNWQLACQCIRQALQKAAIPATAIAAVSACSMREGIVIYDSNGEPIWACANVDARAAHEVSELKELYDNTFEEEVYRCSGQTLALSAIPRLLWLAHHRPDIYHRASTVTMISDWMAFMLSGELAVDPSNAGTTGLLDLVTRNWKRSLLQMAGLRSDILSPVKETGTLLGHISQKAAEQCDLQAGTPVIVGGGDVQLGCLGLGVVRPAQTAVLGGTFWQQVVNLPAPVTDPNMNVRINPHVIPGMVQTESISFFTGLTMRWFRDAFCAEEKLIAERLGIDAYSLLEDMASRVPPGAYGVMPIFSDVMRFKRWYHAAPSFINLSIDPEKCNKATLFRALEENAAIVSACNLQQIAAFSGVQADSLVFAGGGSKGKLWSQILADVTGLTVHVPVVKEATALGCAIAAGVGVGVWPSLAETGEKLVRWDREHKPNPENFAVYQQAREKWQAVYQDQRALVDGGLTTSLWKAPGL
# Assay remarks: biochemical
# Type: biochemical, S. typhimurium
Readings of inhibition at 50 µM for the listed molecules
Value expressed in %; do not type the unit.

Study these solved cases before continuing.
Molecule	inhibition at 50 µM / %
O=NN(CCCl)C(=O)NCCCl	10
Cc1cc(=O)oc2c(O)c(O)ccc12	1
CC(=O)OCC(=O)[C@@]1(O)[C@H](C)C[C@H]2[C@@H]3CCC4=CC(=O)C=C[C@]4(C)[C@@]3(F)[C@@H](O)C[C@@]21C [DEXAMETHASONE ACETATE]	0
CO[C@H]1/C=C/O[C@@]2(C)Oc3c(C)c(O)c4c(O)c(c5c(nc6cc(C)ccn65)c4c3C2=O)NC(=O)/C(C)=C\C=C\[C@H](C)[C@H](O)[C@@H](C)[C@@H](O)[C@@H](C)[C@H](OC(C)=O)[C@@H]1C	1

Inquiry: Find the recorded inhibition at 50 µM belonging to "O=c1c(O)c(-c2ccc(O)cc2)oc2cc(O)cc(O)c12" and report it.
Reply text: 0

Inquiry: Find the recorded inhibition at 50 µM belonging to "O=c1c(O)c(-c2ccc(O)c(O)c2)oc2c(O)c(O)cc(O)c12" and report it.
Reply text: 115

Inquiry: Find the recorded inhibition at 50 µM belonging to "COc1ccc2[nH]cc(CCNC(C)=O)c2c1" and report it.
Reply text: 1
